# System: E.coli ATCC 11 775
# method: experimental intraperitoneal infection in mice, ED50 (survival)
# Type: in vivo, Mäuse
# condition.info: Escherichia coli, ATCC 11 / ATCC 1175, sc, 168 h; female NMRI mice, i.p. infection, s.c. application, treated once, 7 days observation
experimental.readout: ED50

# compound, result
data = [
    ("C[S+]([O-])c1ccc(CNc2ncc(NC(=O)NC(C(=O)N[C@@H]3C(=O)N4[C@@H]3SC(C)(C)[C@@H]4C(=O)O)c3ccc(O)cc3)c(O)n2)cc1 (stereo partly shown) [Verbindung 62]", "5.9 mg/kg"),
    ("CC1(C)SC2C(NC(=O)C(NC(=O)Nc3cnc(Nc4ccc(S(N)(=O)=O)c(O)c4)nc3O)c3ccc(O)cc3)C(=O)N2C1C(=O)O (stereo not shown) [Verbindung 44]", "2.1 mg/kg"),
    ("CC1(C)S[C@@H]2[C@H](NC(=O)C(NC(=O)Nc3cnc(NCc4ccc(O)cc4)nc3O)c3ccc(O)cc3)C(=O)N2[C@H]1C(=O)O (stereo partly shown) [Verbindung 57]", "7.2 mg/kg"),
    ("CC1(C)S[C@@H]2[C@H](NC(=O)[C@H](NC(=O)N3CCNC3=O)c3ccccc3)C(=O)N2[C@H]1C(=O)O [A, reference compound]", "> 100 mg/kg"),
    ("C[S+]([O-])c1ccc(Nc2ncc(NC(=O)NC(C(=O)NC3C(=O)N4C3SC(C)(C)C4C(=O)O)c3ccccc3)c(O)n2)cc1 (stereo not shown) [Verbindung 21]", "3 mg/kg"),
    ("CCCCNS(=O)(=O)c1ccc(Nc2ncc(NC(=O)N[C@@H](C(=O)N[C@@H]3C(=O)N4[C@@H]3SC(C)(C)[C@@H]4C(=O)O)c3ccc(O)cc3)c(O)n2)cc1 [Verbindung 20]", "6.6 mg/kg"),
    ("CC1(C)SC2C(NC(=O)C(NC(=O)Nc3cnc(Nc4ccc(NC(N)=O)cc4)nc3O)c3ccc(O)cc3)C(=O)N2C1C(=O)O (stereo not shown) [Verbindung 43]", "5.6 mg/kg"),
    ("CN(C)S(=O)(=O)c1ccc(Nc2ncc(NC(=O)N[C@@H](C(=O)N[C@@H]3C(=O)N4[C@@H]3SC(C)(C)[C@@H]4C(=O)O)c3ccccc3)c(O)n2)cc1 [Verbindung 14]", "4.2 mg/kg"),
]

Query :: Read the entry CC1(C)SC2C(NC(=O)C(NC(=O)Nc3cnc(Nc4ccc(S(N)(=O)=O)c(O)c4)nc3O)c3ccccc3)C(=O)N2C1C(=O)O (stereo not shown) [Verbindung 45] and write its reported ED50.
Result :: 3.2 mg/kg

Query :: Consider the compound CC1(C)SC2C(NC(=O)C(NC(=O)Nc3cnc(Nc4ccc(S(C)(=O)=O)cc4)nc3O)c3ccccc3)C(=O)N2C1C(=O)O (stereo not shown) [Verbindung 24] and give its recorded ED50.
Result :: 4.7 mg/kg

Query :: Please indicate ED50 recorded for CC1(C)S[C@@H]2[C@H](NC(=O)C(NC(=O)Nc3cnc(NCc4ccc(S(N)(=O)=O)cc4)nc3O)c3ccc(O)cc3)C(=O)N2[C@H]1C(=O)O (stereo partly shown) [Verbindung 64]
Result :: 2.4 mg/kg

Query :: Note down ED50 recorded for CC1(C)SC2C(NC(=O)C(NC(=O)Nc3cnc(Nc4ccc([N+](=O)[O-])cc4)nc3O)c3ccccc3)C(=O)N2C1C(=O)O (stereo not shown) [Verbindung 41]
Result :: 8.3 mg/kg

Query :: Provide measured ED50 value, entry: CC1(C)S[C@@H]2[C@H](NC(=O)[C@H](NC(=O)N3CCN(S(C)(=O)=O)C3=O)c3ccccc3)C(=O)N2[C@H]1C(=O)O [B, Mezlocillin, reference compound]
Result :: > 100 mg/kg

###

# Test system: Proteus mirabilis Hamburgensis
# method: serial dilution test in microtiter system (bacteriostasis, MIC)
# Format: cell-based
# condition.info: liquid medium, 18 to 20 h at 37°C, read-out: MHK-Werte Prot. mir. Hbg.
The entries below come with measured MIC values attached.
Remember to put the unit after the number in your answer.

Worked cases, answers included:
# compound, experimental.readout, result
records = [
    ("CCN1CCN(C(=O)N[C@@H](C(=O)N[C@@H]2C(=O)N3[C@@H]2SC(C)(C)[C@@H]3C(=O)O)c2ccccc2)C(=O)C1=O [D, Piperacillin, reference compound]", "MIC", "0.25 µg/mL"),
    ("CC(=O)Oc1ccc(CNc2ncc(NC(=O)NC(C(=O)N[C@@H]3C(=O)N4[C@@H]3SC(C)(C)[C@@H]4C(=O)O)c3ccc(O)cc3)c(O)n2)cc1 (stereo partly shown)", "MIC", "0.06 µg/mL"),
    ("CC1(C)SC2C(NC(=O)C(NC(=O)Nc3cnc(Nc4ccc([N+](=O)[O-])cc4)nc3O)c3ccccc3)C(=O)N2C1C(=O)O (stereo not shown)", "MIC", "0.06 µg/mL"),
    ("C[S+]([O-])c1ccc(Nc2ncc(NC(=O)NC(C(=O)NC3C(=O)N4C3SC(C)(C)C4C(=O)O)c3ccccc3)c(O)n2)cc1 (stereo not shown)", "MIC", "0.12 µg/mL"),
    ("C[S+]([O-])c1ccc(CNc2ncc(NC(=O)NC(C(=O)N[C@@H]3C(=O)N4[C@@H]3SC(C)(C)[C@@H]4C(=O)O)c3ccc(O)cc3)c(O)n2)cc1 (stereo partly shown)", "MIC", "0.12 µg/mL"),
    ("CC1(C)SC2C(NC(=O)C(NC(=O)Nc3cnc(Nc4ccc(S(N)(=O)=O)c(O)c4)nc3O)c3ccc(O)c(Cl)c3)C(=O)N2C1C(=O)O (stereo not shown)", "MIC", "0.12 µg/mL"),
    ("CC1(C)S[C@@H]2[C@H](NC(=O)[C@H](NC(=O)Nc3cnc(Nc4ccc(S(N)(=O)=O)cc4)nc3O)c3ccc(O)c(O)c3)C(=O)N2[C@H]1C(=O)O", "MIC", "0.5 µg/mL"),
    ("CC1(C)SC2C(NC(=O)C(NC(=O)Nc3cnc(Nc4ccc(S(C)(=O)=O)cc4)nc3O)c3ccccc3)C(=O)N2C1C(=O)O (stereo not shown)", "MIC", "0.06 µg/mL"),
]

Query :: Fill in MIC for record CNS(=O)(=O)c1ccc(Nc2ncc(NC(=O)N[C@@H](C(=O)N[C@@H]3C(=O)N4[C@@H]3SC(C)(C)[C@@H]4C(=O)O)c3ccccc3)c(O)n2)cc1
Result :: 0.03 µg/mL

Query :: Please list MIC recorded for the compound CC1(C)S[C@@H]2[C@H](NC(=O)[C@H](NC(=O)Nc3cnc(Nc4ccc(S(N)(=O)=O)cc4)nc3O)c3cccs3)C(=O)N2[C@H]1C(=O)O
Result :: 0.06 µg/mL

###

# System: Klebsiella pneumoniae ATCC 10 031
Measured MIC by item
Provide the measurement as a number trailed by its unit.

Please review the following examples before continuing.
# compound, MIC
data = [
    ("CNS(=O)(=O)c1ccc(Nc2ncc(NC(=O)N[C@@H](C(=O)N[C@@H]3C(=O)N4[C@@H]3SC(C)(C)[C@@H]4C(=O)O)c3ccc(O)cc3)c(O)n2)cc1", "1 µg/mL"),
    ("CC1(C)SC2C(NC(=O)C(NC(=O)Nc3cnc(Nc4ccc(S(C)(=O)=O)cc4)nc3O)c3ccc(O)c(Cl)c3)C(=O)N2C1C(=O)O (centres unmarked)", "1 µg/mL"),
    ("CC1(C)S[C@@H]2[C@H](NC(=O)C(NC(=O)Nc3cnc(Nc4ccc(C(N)=O)c(O)c4)nc3O)c3ccc(O)cc3)C(=O)N2[C@H]1C(=O)O (some centres unmarked)", "2 µg/mL"),
    ("CC1(C)S[C@@H]2[C@H](NC(=O)[C@H](NC(=O)N3CCNC3=O)c3ccccc3)C(=O)N2[C@H]1C(=O)O [A, reference compound]", "32 µg/mL"),
]

Query :: Consider the compound CC1(C)S[C@@H]2[C@H](NC(=O)[C@H](NC(=O)Nc3cnc(Nc4cccc(S(N)(=O)=O)c4)nc3O)c3ccc(O)cc3)C(=O)N2[C@H]1C(=O)O tested on Klebsiella pneumoniae ATCC 10 031; state its MIC.
Result :: 2 µg/mL

Query :: Write down measured MIC (Klebsiella pneumoniae ATCC 10 031) for this compound. CCCCS(=O)(=O)c1ccc(Nc2ncc(NC(=O)NC(C(=O)NC3C(=O)N4C3SC(C)(C)C4C(=O)O)c3ccc(O)cc3)c(O)n2)cc1 (centres unmarked)
Result :: 1 µg/mL

Query :: Look up and report measured MIC (Klebsiella pneumoniae ATCC 10 031) for the following compound: C[S+]([O-])c1ccc(CNc2ncc(NC(=O)NC(C(=O)N[C@@H]3C(=O)N4[C@@H]3SC(C)(C)[C@@H]4C(=O)O)c3ccc(O)cc3)c(O)n2)cc1 (some centres unmarked)
Result :: 4 µg/mL

Query :: # assay system Klebsiella pneumoniae ATCC 10 031: give MIC of CC1(C)S[C@@H]2[C@H](NC(=O)[C@H](NC(=O)Nc3cnc(Nc4ccc(S(N)(=O)=O)cc4)nc3O)c3ccc(O)c(Cl)c3)C(=O)N2[C@H]1C(=O)O
Result :: 2 µg/mL

Query :: Identify measured MIC obtained with Klebsiella pneumoniae ATCC 10 031 for CC1(C)S[C@@H]2[C@H](NC(=O)[C@H](NC(=O)Nc3cnc(Nc4ccc(S(N)(=O)=O)cc4)nc3O)c3ccccc3)C(=O)N2[C@H]1C(=O)O .
Result :: 0.5 µg/mL

Query :: Lab note: Klebsiella pneumoniae ATCC 10 031 assay, enter MIC for CNS(=O)(=O)c1ccc(Nc2ncc(NC(=O)N[C@@H](C(=O)N[C@@H]3C(=O)N4[C@@H]3SC(C)(C)[C@@H]4C(=O)O)c3ccccc3)c(O)n2)cc1 here
Result :: 0.5 µg/mL

Query :: Param request: MIC | system Klebsiella pneumoniae ATCC 10 031 | item CC1(C)S[C@@H]2[C@H](NC(=O)C(NC(=O)Nc3cnc(Nc4ccc(C(N)=O)c(C(N)=O)c4)nc3O)c3ccc(O)cc3)C(=O)N2[C@H]1C(=O)O (some centres unmarked)
Result :: 2 µg/mL

Value source: patent EP0051773A1
